tested on: Trichoderma virens ATCC 9645; test: growth yield (OD600) with compound + IPBC relative to untreated control; higher = less growth inhibition; conditions: compound concentration: 100 uM; IPBC concentration: 200 ng/ml; 72 h
Structures can show the parent of a compound that is named as a salt. Among all 1,300 compounds or so, about 130 (10%) showed an effect of 50% or more. What follows is part of a selection rich in strong results, with near analogues and random picks from the rest.
experimental endpoint: growth yield (%)
Give the value in % but do not write % after it.

Examples from the recorded data:
// field: growth yield; key: Cc1[nH]c(=O)c(C#N)cc1-c1ccncc1 [Milrinone] + CCCCNC(=O)OCC#CI [3-iodo-2-propynyl butylcarbamate (IPBC)] ; value = 92.9

// field: growth yield; key: Cc1c(N)c(=O)n(-c2ccccc2)n1C [Ampyrone] + CCCCNC(=O)OCC#CI [3-iodo-2-propynyl butylcarbamate (IPBC)] ; value = 105

// field: growth yield; key: CCCCNc1ccc(C(=O)OCCN(C)C)cc1 + CCCCNC(=O)OCC#CI [3-iodo-2-propynyl butylcarbamate (IPBC)] ; value = 88.2

// field: growth yield; key: CCCCNc1ccc(C(=O)OCCOCCOCCOCCOCCOCCOCCOCCOCCOC)cc1 [Benzonatate] + CCCCNC(=O)OCC#CI [3-iodo-2-propynyl butylcarbamate (IPBC)] ; value = 83.3

// field: growth yield; key: O=C(CCCN1CCC2(CC1)C(=O)NCN2c1ccccc1)c1ccc(F)cc1 [Spiperone] + CCCCNC(=O)OCC#CI [3-iodo-2-propynyl butylcarbamate (IPBC)] ; value = 90.4

// field: growth yield; key: NC(=O)N1c2ccccc2C=Cc2ccccc21 [Carbamazepine] + CCCCNC(=O)OCC#CI [3-iodo-2-propynyl butylcarbamate (IPBC)] ; value = 93.8

// field: growth yield; key: COc1ccc(-c2cc(=S)ss2)cc1 [Anethole-trithione] + CCCCNC(=O)OCC#CI [3-iodo-2-propynyl butylcarbamate (IPBC)] ; value = 74.9

// field: growth yield; key: O=C(CCCN1CCC(O)(c2ccc(Br)cc2)CC1)c1ccc(F)cc1 [Bromperidol] + CCCCNC(=O)OCC#CI [3-iodo-2-propynyl butylcarbamate (IPBC)] ; value = 87.3

Further cases:
// field: growth yield; key: O=C(CCCN1CCC(O)(c2ccc(Cl)cc2)CC1)c1ccc(F)cc1 [Haloperidol] + CCCCNC(=O)OCC#CI [3-iodo-2-propynyl butylcarbamate (IPBC)] ; value = 60.4

// field: growth yield; key: CC(C)(C#N)c1cc(Cn2cncn2)cc(C(C)(C)C#N)c1 [Anastrozole] + CCCCNC(=O)OCC#CI [3-iodo-2-propynyl butylcarbamate (IPBC)] ; value = 98.9

// field: growth yield; key: O=C(Oc1cccc2cccnc12)c1ccccc1 [Benzoxiquine] + CCCCNC(=O)OCC#CI [3-iodo-2-propynyl butylcarbamate (IPBC)] ; value = 65.5

// field: growth yield; key: CN(c1nccc(=O)[nH]1)C1CCN(c2nc3ccccc3n2Cc2ccc(F)cc2)CC1 [Mizolastine] + CCCCNC(=O)OCC#CI [3-iodo-2-propynyl butylcarbamate (IPBC)] ; value = 88.1

// field: growth yield; key: Clc1ccc(Cn2c(CN3CCCC3)nc3ccccc32)cc1 [Clemizole hydrochloride] + CCCCNC(=O)OCC#CI [3-iodo-2-propynyl butylcarbamate (IPBC)] ; value = 98.5

// field: growth yield; key: Fc1ccc(C(OCCN2CCN(CCCc3ccccc3)CC2)c2ccc(F)cc2)cc1 + CCCCNC(=O)OCC#CI [3-iodo-2-propynyl butylcarbamate (IPBC)] ; value = 65.3

// field: growth yield; key: O=C(O)c1cccnc1 [Niacin] + CCCCNC(=O)OCC#CI [3-iodo-2-propynyl butylcarbamate (IPBC)] ; value = 103

---

# growth yield per record follows
test system: Trichoderma virens ATCC 9645; assay: growth yield (OD600) with compound + IPBC relative to untreated control; higher = less growth inhibition; conditions: compound concentration: 100 uM; IPBC concentration: 200 ng/ml; 72 h
Where a name gives a salt, the structure may show the parent alone. About 130 (10%) of roughly 1,300 compounds showed an effect of 50% or more. What follows is part of a selection rich in strong results, with near analogues and random picks from the rest.
Give the value in % but do not write % after it.

// field: growth yield; key: Cn1ccnc1S [Methimazole] + CCCCNC(=O)OCC#CI [3-iodo-2-propynyl butylcarbamate (IPBC)] ; value = 111

Further cases:
// field: growth yield; key: CN(C)CCOC(c1ccc(Cl)cc1)c1ccccn1 (stereo not drawn) [Carbinoxamine maleate salt] + CCCCNC(=O)OCC#CI [3-iodo-2-propynyl butylcarbamate (IPBC)] ; value = 102

// field: growth yield; key: OCCOCCN1CCN(C2=Nc3ccccc3Sc3ccccc32)CC1 [Quetiapine hemifumarate] + CCCCNC(=O)OCC#CI [3-iodo-2-propynyl butylcarbamate (IPBC)] ; value = 85.7

---

test system: Trichoderma virens ATCC 9645; experiment: growth yield (OD600) with compound + IPBC relative to untreated control; higher = less growth inhibition; conditions: compound concentration: 100 uM; IPBC concentration: 200 ng/ml; 40 h
Where a name gives a salt, the structure may show the parent alone. The campaign covered roughly 1,300 compounds. About 130 (10%) showed an effect of 50% or more. The entries come from a sample that favours strong results as a whole.
experimental endpoint: growth yield (%)
Give the value in % but do not write % after it.

Examples from the recorded data:
// field: growth yield; key: C[C@]12CC[C@@H]3c4ccc(OC(=O)N(CCCl)CCCl)cc4CC[C@H]3[C@@H]1CC[C@@H]2O [Estramustine] + CCCCNC(=O)OCC#CI [3-iodo-2-propynyl butylcarbamate (IPBC)] ; value = 97.8

// field: growth yield; key: CCOc1ccc2c(c1)C(C)=CC(C)(C)N2 [Ethoxyquin] + CCCCNC(=O)OCC#CI [3-iodo-2-propynyl butylcarbamate (IPBC)] ; value = 98.3

// field: growth yield; key: N=C(N)N1CCc2ccccc2C1 [Debrisoquin sulfate] + CCCCNC(=O)OCC#CI [3-iodo-2-propynyl butylcarbamate (IPBC)] ; value = 92.3

// field: growth yield; key: c1ccc2c(c1)Nc1ccccc1S2 [Phenothiazine] + CCCCNC(=O)OCC#CI [3-iodo-2-propynyl butylcarbamate (IPBC)] ; value = 34.8

// field: growth yield; key: CCOC(=O)c1ccc(C#Cc2ccc3c(c2)C(C)(C)CCS3)nc1 [Tazarotene] + CCCCNC(=O)OCC#CI [3-iodo-2-propynyl butylcarbamate (IPBC)] ; value = 81.2

Further cases:
// field: growth yield; key: COc1ccc(C(=O)N2CCCC2=O)cc1 [Aniracetam] + CCCCNC(=O)OCC#CI [3-iodo-2-propynyl butylcarbamate (IPBC)] ; value = 83.7

---

system: Trichoderma virens ATCC 9645; assay: growth yield (OD600) with compound + IPBC relative to untreated control; higher = less growth inhibition; conditions: compound concentration: 100 uM; IPBC concentration: 200 ng/ml; 40 h
Where a name gives a salt, the structure may show the parent alone. Hit rate of the full screen: of about 1,300 compounds, about 130 (10%) showed an effect of 50% or more. This excerpt belongs to a sample that is enriched for strong results.
Binned growth yield; ranges: lower band: < 50%; central band: ≥ 50% and < 80%; upper band: ≥ 80%

Some solved entries appear below for comparison.
QUERY: Determine which band this compound sits in: C[N+]1([O-])[C@@H]2C[C@@H](OC(=O)[C@H](CO)c3ccccc3)C[C@H]1[C@@H]1O[C@@H]12 (stereo not given in full) [Scopolamin-N-oxide hydrobromide] + CCCCNC(=O)OCC#CI [3-iodo-2-propynyl butylcarbamate (IPBC)]
RESULT: upper band

QUERY: Determine which band this compound sits in: CN1CCC[C@@H]1CCO[C@](C)(c1ccccc1)c1ccc(Cl)cc1 [Clemastine fumarate] + CCCCNC(=O)OCC#CI [3-iodo-2-propynyl butylcarbamate (IPBC)]
RESULT: central band

QUERY: Determine which band this compound sits in: CSc1ccc2c(c1)N(CCC1CCCCN1C)c1ccccc1S2 (stereo not given) [Thioridazine hydrochloride] + CCCCNC(=O)OCC#CI [3-iodo-2-propynyl butylcarbamate (IPBC)]
RESULT: lower band

QUERY: Determine which band this compound sits in: CCC1(c2ccccc2)NC(=O)N(C)C1=O (stereo not given) [Mephenytoin] + CCCCNC(=O)OCC#CI [3-iodo-2-propynyl butylcarbamate (IPBC)]
RESULT: upper band

QUERY: Determine which band this compound sits in: OCCN1CCN(CCCN2c3ccccc3C=Cc3ccccc32)CC1 [Opipramol dihydrochloride] + CCCCNC(=O)OCC#CI [3-iodo-2-propynyl butylcarbamate (IPBC)]
RESULT: central band

Further cases:
QUERY: Determine which band this compound sits in: COc1ccc2c(c1)N(C[C@H](C)CN(C)C)c1ccccc1S2 [Methotrimeprazine maleat salt] + CCCCNC(=O)OCC#CI [3-iodo-2-propynyl butylcarbamate (IPBC)]
RESULT: central band

QUERY: Determine which band this compound sits in: COc1c(N2C[C@@H]3CCCN[C@@H]3C2)c(F)cc2c(=O)c(C(=O)O)cn(C3CC3)c12 [Moxifloxacin] + CCCCNC(=O)OCC#CI [3-iodo-2-propynyl butylcarbamate (IPBC)]
RESULT: upper band

QUERY: Determine which band this compound sits in: CN1CCN(CCCN2c3ccccc3Sc3ccc(Cl)cc32)CC1 [Prochlorperazine dimaleate] + CCCCNC(=O)OCC#CI [3-iodo-2-propynyl butylcarbamate (IPBC)]
RESULT: lower band

These data points were gathered from the supplement of paper PMC8007513.
